Consider the following compounds; for each one, report its inhibition.
Molecular target: Serine/threonine-protein kinase BRSK1 (Homo sapiens) (UniProt Q8TDC3)
Sequence (Q8TDC3 whole entry): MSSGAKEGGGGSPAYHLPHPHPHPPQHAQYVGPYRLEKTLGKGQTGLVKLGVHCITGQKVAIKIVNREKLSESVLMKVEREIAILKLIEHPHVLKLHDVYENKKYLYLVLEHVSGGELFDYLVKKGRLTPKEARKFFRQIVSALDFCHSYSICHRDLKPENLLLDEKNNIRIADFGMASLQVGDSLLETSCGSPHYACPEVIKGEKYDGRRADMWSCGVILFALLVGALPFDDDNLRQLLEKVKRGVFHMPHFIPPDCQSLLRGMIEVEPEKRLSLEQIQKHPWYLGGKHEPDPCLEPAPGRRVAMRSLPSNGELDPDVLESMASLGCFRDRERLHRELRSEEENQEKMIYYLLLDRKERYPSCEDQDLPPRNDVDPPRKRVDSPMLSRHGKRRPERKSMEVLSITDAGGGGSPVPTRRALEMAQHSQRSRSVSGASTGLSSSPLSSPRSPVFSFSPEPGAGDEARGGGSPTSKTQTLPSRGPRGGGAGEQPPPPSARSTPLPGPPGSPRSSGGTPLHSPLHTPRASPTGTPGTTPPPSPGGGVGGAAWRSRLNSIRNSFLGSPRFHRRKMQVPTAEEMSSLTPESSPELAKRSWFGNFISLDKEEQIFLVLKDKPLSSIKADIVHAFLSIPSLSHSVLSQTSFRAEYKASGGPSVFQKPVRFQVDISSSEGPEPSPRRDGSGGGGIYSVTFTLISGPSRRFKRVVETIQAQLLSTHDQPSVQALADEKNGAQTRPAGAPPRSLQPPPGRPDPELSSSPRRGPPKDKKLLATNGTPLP
Conditions: at 0.1 µM
Description: GSK_PKIS: BRSK1 mean inhibition at 0.1 uM [Nanosyn]
Your answer is read as %, so omit the unit and give the number.

Input: Return reported inhibition; argument: COC(=O)Nc1nc2cc(Oc3ccc(NC(=O)Nc4cccc(Br)c4)cc3)ccc2[nH]1
Output: -0.15

Input: Return reported inhibition; argument: Cc1ccc(Nc2ccnc(Nc3cccc(C(N)=O)c3)n2)cc1O
Output: 0.1

Input: Return reported inhibition; argument: NC(=O)c1cccc(Nc2nccc(Nc3cccc(F)c3)n2)c1
Output: 1.64

Input: Return reported inhibition; argument: Cc1ccc(NC(=O)CC2CC2)cc1-c1ccc(C(=O)NCC2CC2)cc1
Output: -0.17

Input: Return reported inhibition; argument: Cc1ccc2c(-c3ccnc(Nc4cccc(C(F)(F)F)c4)n3)c(-c3ccccc3)nn2n1
Output: 2.22

Input: Return reported inhibition; argument: Cc1ccc2c(-c3ccnc(Nc4ccc5c(c4)OCCO5)n3)c(-c3ccc(C(F)(F)F)cc3)nn2n1
Output: -0.85

Input: Return reported inhibition; argument: NC(=O)c1sc(-n2cnc3ccccc32)cc1OCc1ccccc1Br
Output: 3.67

Input: Return reported inhibition; argument: COc1cc2ncnc(Nc3ccc(C)c(O)c3)c2cc1OC
Output: 1.23

Input: Return reported inhibition; argument: COc1cccc(-n2ncc3c(N/N=C/c4ccc(S(C)(=O)=O)cc4)ncnc32)c1
Output: 13.7

Input: Return reported inhibition; argument: CCS(=O)(=O)c1ccc(OC)c(Nc2ncc(-c3cccc(OC)c3)o2)c1
Output: 1.53

====

Consider the following molecules; for each one, report its inhibition.
Biological target: Insulin receptor (Homo sapiens);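 further: reported values are averages of replicate inhibition measurements against the insulin receptor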
Settings: at 0.1 µM
Your answer is read as %, so omit the unit and give the number.

Input: Provide value of inhibition for this record tested with Insulin receptor (Homo sapiens): FC(F)(F)c1ccc(-c2nn3ncccc3c2-c2ccnc(Nc3ccc4c(c3)OCCO4)n2)cc1
Output: 0.23

Input: Provide value of inhibition for this record tested with Insulin receptor (Homo sapiens): COc1cccc(-n2ncc3c(N/N=C/c4ccc(S(C)(=O)=O)cc4)ncnc32)c1
Output: 2.59

Input: Provide value of inhibition for this record tested with Insulin receptor (Homo sapiens): O=S(=O)(CCOCc1ccc(-c2ccc3ncnc(Nc4ccc(OCc5cccc(F)c5)c(Cl)c4)c3c2)o1)c1ccccc1
Output: 1.87

Input: Provide value of inhibition for this record tested with Insulin receptor (Homo sapiens): CS(=O)(=O)CCNCc1nc(-c2ccc3ncnc(Nc4ccc(OCc5cccc(C(F)(F)F)c5)cc4)c3c2)cs1
Output: 1.31

Input: Provide value of inhibition for this record tested with Insulin receptor (Homo sapiens): COc1cccc(-n2nc(C)c3c(N/N=C(\C)c4ccncc4)ncnc32)c1
Output: 2.42

Input: Provide value of inhibition for this record tested with Insulin receptor (Homo sapiens): Nc1nccc(-c2c(-c3ccc(F)cc3)ncn2CCCN2CCOCC2)n1
Output: 0.02

Input: Provide value of inhibition for this record tested with Insulin receptor (Homo sapiens): NC(=O)c1cccc(Nc2nccc(Nc3cccc(F)c3)n2)c1
Output: 4.46

Input: Provide value of inhibition for this record tested with Insulin receptor (Homo sapiens): Cc1cc(Cl)cc2c1NC(=O)C2=NNc1ccc(S(N)(=O)=O)cc1
Output: 2.78

Input: Provide value of inhibition for this record tested with Insulin receptor (Homo sapiens): CC(C)c1ccc(Nc2nccc(-c3cnn4ncccc34)n2)cc1
Output: 10.2

Input: Provide value of inhibition for this record tested with Insulin receptor (Homo sapiens): NS(=O)(=O)c1ccc(NC=C2C(=O)Nc3ccc4ncsc4c32)cc1
Output: 6.96

Entry source: ChEMBL document CHEMBL1961873
